All figures here come from the nanobody polyreactivity screen of Harvey et al. (2022).

# Assay overview: yeast display, Sf9 membrane polyspecificity reagent, FACS + sequencing; frameworks hold sequencing errors
Measured property: polyreactivity (PSR sort gate)

{"columns": ["Entry sequence", "Value observed"],
 "data": [
  ["QVQLVESGGGLVQAGGSLRLSCAASGFIIPGYAMGWYRQAPGKERELVAAISSGTSTYYEDSVKGRFTISRDNAKNTVYLQMNSLKPEATAVYDCAAETWYRFGYWGQGTQVTVSS", "low polyreactivity"],
  ["QVQLVESGGGLDQAGGSLRLSCAASGSIFDSYVMGWYRQAPGKERDLVAAFSRGGSTYYADSVKGRFTISRDNAQNTVYLQINSLKPEDTSVYYCAAGYRVHSPDDCYWGQGTQVTVSS", "low polyreactivity"]
]}
